IC50 overview
biological target: SYK (Homo sapiens);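 further: purified full-length human SYK pre-incubated 30 min with compound, then ULight-TK peptide phosphorylation for 1 h, detected with Europium-labeled antibody in Lance buffer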

# compound, IC50
data = [
    ("C=CC(=O)Nc1cc(Nc2nccc(-n3cc(CN4CCC4)c(-c4ccccc4)n3)n2)c(OC)cc1N1CCN(C(C)=O)CC1 [Compound 134]", "201 to 1000 nM"),
    ("Cc1cn(-c2ccnc(Nc3ccc(-c4ccccc4)c(C)c3)n2)cc1CN1CC(O)C1 [Compound 150, reference compound]", "> 1000 nM"),
    ("Cc1cc(Nc2nccc(-n3cc(CN4CC(O)C4)c(C)n3)n2)cc(C)c1OCCO [Compound 149, reference compound]", "> 1000 nM"),
    ("Cc1cc(Nc2nccc(-n3cc(CN4CC[C@@H](O)C4)c(C)n3)n2)cc(C)c1OCCN1CCCC1 [Compound 148, reference compound]", "201 to 1000 nM"),
    ("C=CC(=O)Nc1cc(Nc2nccc(-n3cc(CN4CCC4)c(-c4cccs4)n3)n2)c(OC)cc1N1CCOCC1 [Compound 118]", "20 to 200 nM"),
    ("C=CC(=O)Nc1cc(Nc2ncc(Cl)c(-n3cc(CN4C[C@@H](O)[C@@H](O)C4)c(C)n3)n2)c(OC)cc1N1CCN(C)CC1 [Compound 54]", "> 1000 nM"),
]

* * *

target: EGFR mutant L858R/T790M (Homo sapiens, UniProt P00533, L858R/T790M); construct: truncated human JAK3, EGFR mutants such as del E746-A750; purchased Carna Biosciences; experiment: Kinase inhibition assay, EGFR L858R/T790M; format: biochemical; conditions: read-out: EGFR mutants L858R/T790M;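 further: truncated human enzyme preincubated two hours with compound, then one hour with one millimolar ATP and ULight-PolyGT peptide, Europium-labeled antibody detection, IC50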
Sequence (P00533 669-1210 T790M/L858R limits assumed): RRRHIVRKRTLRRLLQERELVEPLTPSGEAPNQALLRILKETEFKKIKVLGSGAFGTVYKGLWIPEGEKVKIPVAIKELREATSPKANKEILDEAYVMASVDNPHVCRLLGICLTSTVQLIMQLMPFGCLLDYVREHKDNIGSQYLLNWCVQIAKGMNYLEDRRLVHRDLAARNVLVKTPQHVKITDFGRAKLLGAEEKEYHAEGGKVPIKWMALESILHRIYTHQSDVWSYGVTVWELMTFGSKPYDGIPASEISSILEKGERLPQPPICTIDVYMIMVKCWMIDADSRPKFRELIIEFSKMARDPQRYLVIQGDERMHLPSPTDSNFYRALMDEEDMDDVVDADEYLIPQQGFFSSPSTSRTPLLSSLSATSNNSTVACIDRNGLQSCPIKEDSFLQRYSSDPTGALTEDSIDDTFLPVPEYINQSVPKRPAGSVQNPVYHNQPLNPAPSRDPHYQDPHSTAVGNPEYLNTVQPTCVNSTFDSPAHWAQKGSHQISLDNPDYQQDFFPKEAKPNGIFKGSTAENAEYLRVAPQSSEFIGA
IC50 overview

# molecule, IC50
records = [
    ("C=CC(=O)Nc1cc(Nc2nccc(-n3cc(CN(C)C)c(-c4ccncc4)n3)n2)c(OC)cc1N1CCOCC1", "< 20 nM"),
    ("C=CC(=O)Nc1cc(Nc2nccc(-n3cc(CO)c(-c4ccccc4)n3)n2)c(OC)cc1N1CCOCC1", "20 to 200 nM"),
    ("C=CC(=O)Nc1cc(Nc2nccc(-n3cc(CN(C)C)c(-c4ccc(C)cc4)n3)n2)c(OC)cc1N1CCOCC1", "< 20 nM"),
    ("C=CC(=O)Nc1cc(Nc2ncc(C)c(-n3cc(CN4CCC4)cn3)n2)c(OC)cc1N1CCCOCC1", "< 20 nM"),
    ("C=CC(=O)Nc1cc(Nc2ncc(C)c(-n3cc(CN(C)C)c(C(C)(C)C)n3)n2)c(OC)cc1N1CCOCC1", "< 20 nM"),
    ("C=CC(=O)Nc1cc(Nc2nccc(-n3cc(CN(C)C)c(-c4cccnc4)n3)n2)c(OC)cc1N1CCOCC1", "< 20 nM"),
    ("COc1cc(N2CCOCC2)c([N+](=O)[O-])cc1Nc1nccc(-n2cc(CN(C)C)c(-c3ccccc3)n2)n1 [Compound 152, reference compound]", "> 1000 nM"),
    ("C=CC(=O)Nc1cc(Nc2nccc(-n3cc(CO)c(C)n3)n2)c(OC)cc1N1CCOCC1", "< 20 nM"),
    ("C=CC(=O)Nc1cc(Nc2ncc(C)c(-n3cc(CN4CCC4)cn3)n2)c(OC)cc1N1CCCN(C)CC1", "< 20 nM"),
    ("C=CC(=O)Nc1cc(Nc2nccc(-n3cc(CN4CCCC4)c(-c4ccccc4)n3)n2)c(OC)cc1N1CCOCC1", "< 20 nM"),
    ("C=CC(=O)Nc1cc(Nc2nccc(-n3cc(CN(C)C)c(C)n3)n2)c(OC)cc1N1CCN(C)CC1", "< 20 nM"),
    ("C=CC(=O)Nc1cc(Nc2ncc(F)c(-n3cc(CN4C[C@H](O)[C@H](OC)C4)c(C)n3)n2)c(OC)cc1N1CCOCC1", "20 to 200 nM"),
    ("C=CC(=O)Nc1cc(Nc2ncc(C)c(-n3cc(CN4CCC4)c(C4CC4)n3)n2)c(OC)cc1N1CCOCC1", "< 20 nM"),
    ("C=CC(=O)Nc1cc(Nc2nccc(-n3cc(CN(C)C)c(C(C)C)n3)n2)c(OC)cc1N(C)C1COC1", "< 20 nM"),
    ("C=CC(=O)Nc1cc(Nc2ncc(Cl)c(-n3cc(CN(C)C)c(C)n3)n2)c(OC)cc1N1CCOCC1", "< 20 nM"),
    ("C=CC(=O)Nc1cc(Nc2ncc(F)c(-n3cc(C)c(CN4CCC4)c3)n2)c(OC)cc1N(C)C", "< 20 nM"),
    ("CCC(=O)Nc1cc(Nc2nccc(-n3cc(CN4CCC4)c(-c4ccccc4)n3)n2)c(OC)cc1N1CCOCC1 [Compound 158, reference compound]", "> 1000 nM"),
    ("C=CC(=O)Nc1cc(Nc2nccc(-n3cc(CN4CCC4)c(C(C)C)n3)n2)c(OC)cc1N1CCOCC1", "< 20 nM"),
    ("C=CC(=O)Nc1cc(Nc2nccc(-n3cc(CN4CCC4)c(-c4ccccc4)n3)n2)c(OC)cc1N(C)C1COC1", "< 20 nM"),
    ("C=CC(=O)Nc1cc(Nc2ncc(C)c(-n3cc(CN4CCC4)cn3)n2)c(OC)cc1C1=CCN(C)CC1", "< 20 nM"),
    ("C=CC(=O)Nc1cc(Nc2nccc(-n3cc(CN(C)C)c(C(C)C)n3)n2)c(OC)cc1N1CCOCC1", "< 20 nM"),
    ("C=CC(=O)Nc1cc(Nc2ncc(C)c(-n3cc(CN(C)C)c(C)n3)n2)c(OC)cc1N1CCOCC1", "< 20 nM"),
    ("C=CC(=O)Nc1cc(Nc2ncc(Cl)c(-n3cc(CN4CC(O)C4)c(C)n3)n2)c(OC)cc1N1CCOCC1", "< 20 nM"),
    ("C=CC(=O)Nc1cc(Nc2nccc(-n3cc(CN4CCC4)c(-c4ccccc4)n3)n2)c(OC)cc1N(C)CCOC", "< 20 nM"),
    ("C=CC(=O)Nc1cc(Nc2ncc(C)c(-n3cc(CN(C)C)c(C4CC4)n3)n2)c(OC)cc1N(C)C1COC1", "< 20 nM"),
    ("Cc1cn(-c2ccnc(Nc3ccc(-c4ccccc4)c(C)c3)n2)cc1CN1CC(O)C1 [Compound 150, reference compound]", "201 to 1000 nM"),
    ("Cc1cc(Nc2nccc(-n3cc(CN4CC(O)C4)c(C4CC4)n3)n2)cc(C)c1OCCO [Compound 151, reference compound]", "20 to 200 nM"),
    ("C=CC(=O)Nc1cc(Nc2ncc(C)c(-n3cc(CN(C)C4CN(C)C4)cn3)n2)c(OC)cc1N1CCOCC1", "201 to 1000 nM"),
]

* * *

pIC50 overview
target: EGFR mutant Del19 (E746-A750) (Homo sapiens, UniProt P00533, DEL746-750); construct: truncated human JAK3, EGFR mutants such as del E746-A750; purchased Carna Biosciences; experiment: Kinase inhibition assay, EGFR del E746-A750; format: biochemical; settings: read-out: EGFR mutants Del19 (E746-A750)
Sequence (P00533 with tags, fused parts or gaps DEL746-750 limits assumed): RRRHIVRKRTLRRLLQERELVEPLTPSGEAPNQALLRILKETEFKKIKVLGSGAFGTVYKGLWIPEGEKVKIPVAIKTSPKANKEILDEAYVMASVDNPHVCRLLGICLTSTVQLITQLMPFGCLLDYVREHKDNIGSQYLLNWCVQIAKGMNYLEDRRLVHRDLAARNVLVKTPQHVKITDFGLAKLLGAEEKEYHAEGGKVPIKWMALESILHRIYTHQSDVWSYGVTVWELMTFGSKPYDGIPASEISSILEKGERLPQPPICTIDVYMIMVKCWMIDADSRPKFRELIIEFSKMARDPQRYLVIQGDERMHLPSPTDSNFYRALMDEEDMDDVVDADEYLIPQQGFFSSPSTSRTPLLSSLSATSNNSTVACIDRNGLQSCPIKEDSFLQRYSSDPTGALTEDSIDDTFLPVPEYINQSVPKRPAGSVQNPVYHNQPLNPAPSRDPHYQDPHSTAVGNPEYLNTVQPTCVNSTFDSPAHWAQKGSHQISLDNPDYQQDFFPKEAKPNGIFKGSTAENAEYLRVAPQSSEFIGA
pIC50: −log10 of the molar value.

# molecule, pIC50
measured = [
    ("C=CC(=O)Nc1cc(Nc2ncc(F)c(-n3cc(C)c(CN4CCC4)c3)n2)c(OC)cc1N1CCOCC1 [Compound 60]", "> 7.70"),
    ("C=CC(=O)Nc1cc(Nc2nccc(-n3cc(CN4CC[C@H](N(C)C)C4)cn3)n2)c(OC)cc1N1CCOCC1 [Compound 35]", "6.00 to 6.70"),
    ("C=CC(=O)Nc1cc(Nc2ncc(C)c(-n3cc(CN4CCC4)cn3)n2)c(OC)cc1N1CCN(C)CC1 [Compound 36]", "> 7.70"),
    ("C=CC(=O)Nc1cc(Nc2nccc(-n3cc(CN(C)CC)c(C4CC4)n3)n2)c(OC)cc1N1CCN(C(C)=O)CC1 [Compound 137]", "> 7.70"),
]

* * *

target: EGFR mutant Del19 (E746-A750) (Homo sapiens, UniProt P00533, DEL746-750); construct: truncated human JAK3, EGFR mutants such as del E746-A750; purchased Carna Biosciences; assay: Kinase inhibition assay, EGFR del E746-A750; assay type: biochemical; conditions: read-out: EGFR mutants Del19 (E746-A750);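 further: truncated human EGFR mutant kinase, two-hour preincubation with compound, then one-hour reaction with ATP and ULight-PolyGT peptide, LANCE Europium-antibody phosphorylation readout, IC50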
pIC50: −log10 of the molar value.
readoutName: pIC50

# compound, readoutName, endpointValue
measured = [
    ("C=CC(=O)Nc1cc(Nc2nccc(-n3cc(CN(C)C)c(-c4ccccc4)n3)n2)c(OC)cc1N1CCN(C(C)=O)CC1 [Compound 135]", "pIC50", "> 7.70"),
    ("C=CC(=O)Nc1cc(Nc2nccc(-n3cc(CN4CCC4)c(C4CC4)n3)n2)c(OC)cc1N1CCN(C(C)=O)CC1 [Compound 138]", "pIC50", "> 7.70"),
    ("C=CC(=O)Nc1cc(Nc2ncc(C)c(-n3cc(CN4C[C@H](O)[C@H](OC)C4)cn3)n2)c(OC)cc1N1CCOCC1 [Compound 21]", "pIC50", "> 7.70"),
    ("C=CC(=O)Nc1cc(Nc2nccc(-n3cc(CN4CCC4)c(C(C)(C)C)n3)n2)c(OC)cc1N(C)CCOC [Compound 101]", "pIC50", "> 7.70"),
    ("C=CC(=O)Nc1cc(Nc2ncc(C)c(-n3cc(CN4CCC4)cn3)n2)c(OC)cc1N1CCN(C(C)=O)CC1 [Compound 37]", "pIC50", "> 7.70"),
    ("C=CC(=O)Nc1cc(Nc2nccc(-n3cc(CN(C)C)c(C)n3)n2)c(OC)cc1N1CCN(CCF)CC1 [Compound 79]", "pIC50", "> 7.70"),
    ("C=CC(=O)Nc1cc(Nc2ncc(C)c(-n3cc(CN4C[C@@H](O)[C@@H](O)C4)c(C)n3)n2)c(OC)cc1N1CCOCC1 [Compound 25]", "pIC50", "> 7.70"),
]
